Value source: patent US11673884B2

Listing of recorded IC50 by entry.
- assay.system: recombinant human MMP-13 (Homo sapiens (Human))
- run.description: MMP selectivity assay, MMP-13
- measurement.conditions: Table 2 selectivity profile; read-out: IC50, Target: MMP 13

Task: Need IC50, item Cc1cc(/C=C/c2ccc(Sc3ccncc3C3NC(=O)NC3=O)cc2)ccn1 (centres unmarked) [AC-5]
Output: > 100 nM

Task: Would you mind doing Cc1cc(C#Cc2ccc(Sc3ccncc3C3NC(=O)NC3=O)cc2)ccn1 (centres unmarked) [AC-4] as well?
Output: > 100 nM

Task: Would you mind doing Cc1cc(/C=C/c2ccc(Sc3cnn(C)c3C3NC(=O)NC3=O)cc2)ccn1 (centres unmarked) [AC-12] as well?
Output: 10 to 100 nM

Task: Would you mind doing CCC1(c2occc2Sc2ccc(/C=C/c3ccnc(C)c3)cc2)NC(=O)NC1=O (centres unmarked) [AC-3] as well?
Output: 10 to 100 nM

Task: Would you mind doing Cc1cc(/C=C/c2ccc(Oc3ccncc3C3NC(=O)NC3=O)cc2)ccn1 (centres unmarked) [AC-6] as well?
Output: > 100 nM

Task: Would you mind doing Cc1cc(C#Cc2ccc(Sc3cnn(C)c3C3NC(=O)NC3=O)cc2)ccn1 (centres unmarked) [AC-11] as well?
Output: > 100 nM

Task: Would you mind doing Cc1cc(C#Cc2ccc(Sc3ccsc3C3NC(=O)NC3=O)cc2)ccn1 (centres unmarked) [AC-9] as well?
Output: > 100 nM

Task: Would you mind doing Cc1cc(C#Cc2ccc(Sc3ccoc3C3NC(=O)NC3=O)cc2)ccn1 (centres unmarked) [AC-1] as well?
Output: > 100 nM

Task: Would you mind doing Cc1cc(/C=C/c2ccc(Sc3ccoc3C3NC(=O)NC3=O)cc2)ccn1 (centres unmarked) [AC-2] as well?
Output: 10 to 100 nM

Task: Would you mind doing Cc1cc(/C=C/c2ccc(Sc3ccsc3C3NC(=O)NC3=O)cc2)ccn1 (centres unmarked) [AC-10] as well?
Output: 1 to 10 nM

Please turn your attention to the following entry.
Task: Need IC50, item Cc1cc(C#Cc2ccc(Oc3ccncc3C3NC(=O)NC3=O)cc2)ccn1 (centres unmarked) [AC-7]
Output: > 100 nM

====

- assay.system: recombinant human MMP-3 (Homo sapiens (Human), UniProt P08254)
- Sequence (P08254 100-477): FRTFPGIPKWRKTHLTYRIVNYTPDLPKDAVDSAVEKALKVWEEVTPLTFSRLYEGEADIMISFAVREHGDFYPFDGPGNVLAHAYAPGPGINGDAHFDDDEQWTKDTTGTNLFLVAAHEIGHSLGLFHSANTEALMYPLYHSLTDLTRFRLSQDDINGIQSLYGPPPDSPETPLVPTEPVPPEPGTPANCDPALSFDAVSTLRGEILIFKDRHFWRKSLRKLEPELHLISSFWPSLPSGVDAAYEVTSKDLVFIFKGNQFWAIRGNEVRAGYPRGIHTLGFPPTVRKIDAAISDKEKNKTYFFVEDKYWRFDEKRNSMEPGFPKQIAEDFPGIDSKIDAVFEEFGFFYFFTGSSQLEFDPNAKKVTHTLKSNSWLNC
- run.description: MMP selectivity assay, MMP-3
- measurement.conditions: Table 2 selectivity profile; read-out: IC50, Target: MMP 3
pIC50: −log10 of the molar value.
Listing of recorded pIC50 by entry.

Task: Fill in the recorded pIC50 for this compound, with recombinant human MMP-3 (Homo sapiens (Human), UniProt P08254) as test system: CCC1(c2occc2Sc2ccc(/C=C/c3ccnc(C)c3)cc2)NC(=O)NC1=O (centres unmarked)
Output: 7.00 to 8.00

Task: Would you mind doing Cc1cc(C#Cc2ccc(Sc3ccoc3C3NC(=O)NC3=O)cc2)ccn1 (centres unmarked) as well?
Output: < 7.00

More entries:
Task: Fill in the recorded pIC50 for this compound, with recombinant human MMP-3 (Homo sapiens (Human), UniProt P08254) as test system: Cc1cc(C#Cc2ccc(Sc3cnn(C)c3C3NC(=O)NC3=O)cc2)ccn1 (centres unmarked)
Output: < 7.00

Task: Would you mind doing Cc1cc(C#Cc2ccc(Oc3ccncc3C3NC(=O)NC3=O)cc2)ccn1 (centres unmarked) as well?
Output: < 7.00

Task: Would you mind doing Cc1cc(/C=C/c2ccc(Oc3ccncc3C3NC(=O)NC3=O)cc2)ccn1 (centres unmarked) as well?
Output: < 7.00

Task: Would you mind doing Cc1cc(/C=C/c2ccc(Sc3ccncc3C3NC(=O)NC3=O)cc2)ccn1 (centres unmarked) as well?
Output: < 7.00
